Experiment: Toxicity liver stage against HepG2, at 10uM
Assay type: cell-based
Parameters: test concentration 10 uM, cell line HepG2-A16-CD81EGFP
Conditions: human, HepG2-A16-CD81EGFP cells; read-out: INHIBITION
measured_property: cytotoxicity at 10 µM (%)

In [3]: df
Out[3]:
                                    compound  test_value
 0  CC1CCCCN1C(=O)c1n[nH]c(=O)c2ccccc12 (centres undefined)      -0.402
 1  CC(=O)N1CCN(CC(C)(O)c2cccc(C(F)(F)F)c2)CC1 (centres undefined)       -14.6
 2  CN(C)C(=O)CN1C[C@H]2CC[C@@H](C1)N(C/C=C/c1ccc(F)cc1)C2       -7.65
 3  N#CC1(c2ccccc2)CCN(C(=O)C2CCCN(C(N)=O)C2)CC1 (centres undefined)       -22.2
 4      CCn1c(C)nnc1SCCNC(=O)c1sc(C(C)C)nc1C       -1.27
 5  N#Cc1cc(F)ccc1CN1CCCCC1Cn1cncn1 (centres undefined)        5.41
 6     Cc1cc(CN2CCN(CCOc3cccc(C#N)c3)CC2)no1       -11.6
 7     O=C1[C@H]2CN(CC3CC3)C[C@H]2CN1c1ccsc1        2.88
 8  CNC(=O)CN1CCC(NC(=O)Cc2ccc3c(c2)OCCO3)CC1       -18.3
 9  COC(=O)C(C)(C)NC(=O)C1CC(=O)N(CC(C)C)C1 (centres undefined)        -152
10  Cc1ccnc(NCCNC(=O)C2CC3(CCNCC3)CN2C)c1 (centres undefined)        2.69
11  COc1ccc2c(c1)CCCC2CC(=O)NCC(C)(C)C(=O)O (centres undefined)        -1.2
12      O=C(NC1CC1)N1Cc2[nH]nc(COCC3CC3)c2C1        13.6
13      O=C(NCc1ccccc1CN1CCC(O)CC1)Nc1ccncc1       -13.1
